Where do these numbers come from? They come from ChEMBL document CHEMBL4270562.

PROCEDURE DETAILS: Cytotoxicity against African green monkey Vero cells assessed as cell viability at 5 uM after 48 hrs by MTT assay relative to control
Format: cell-based
STATED CONDITIONS: chlorocebus sabaeus, read-out: Activity
QUANTITY: viability at 48 h, 5 µM (%)
Give bare numbers, in %.

A selection of reference data follows.
INSERT INTO assay_data (compound, quantity, value_observed) VALUES
  ('O=C1C2=C(OC(c3cn(-c4ccc(Cl)cc4)nn3)C2)C(=O)c2ccccc21 (stereo unspecified)', 'viability at 48 h, 5 µM', 78.1),
  ('O=C1C2=C(OC(c3cn(-c4ccc([N+](=O)[O-])cc4)nn3)C2)C(=O)c2ccccc21 (stereo unspecified)', 'viability at 48 h, 5 µM', 63.6),
  ('O=C1C2=C(OC(c3cn(-c4ccc(F)cc4)nn3)C2)C(=O)c2ccccc21 (stereo unspecified)', 'viability at 48 h, 5 µM', 73),
  ('COc1ccc(-n2cc(C3CC4=C(O3)C(=O)c3ccccc3C4=O)nn2)cc1 (stereo unspecified)', 'viability at 48 h, 5 µM', 64.8),
  ('O=C1C2=C(OC(c3cn(-c4cc(Cl)ccc4Cl)nn3)C2)C(=O)c2ccccc21 (stereo unspecified)', 'viability at 48 h, 5 µM', 90.4),
  ('COc1ccc(-n2cc(C3CC4=C(O3)c3ccccc3C(=O)C4=O)nn2)cc1 (stereo unspecified)', 'viability at 48 h, 5 µM', 34.1);

Value sought for every listed compound: viability at 48 h, 5 µM.
1. Cc1ccc(-n2cc(C3CC4=C(O3)C(=O)c3ccccc3C4=O)nn2)cc1 (stereo unspecified)
2. Cc1ccc(-n2cc(C3CC4=C(O3)c3ccccc3C(=O)C4=O)nn2)cc1 (stereo unspecified)
3. O=C1C2=C(OC(c3cn(-c4ccccc4)nn3)C2)C(=O)c2ccccc21 (stereo unspecified)
4. O=C1C(=O)c2ccccc2C2=C1CC(c1cn(-c3ccc(Cl)cc3)nn1)O2 (stereo unspecified)
5. O=C1C(=O)c2ccccc2C2=C1CC(c1cn(-c3ccc([N+](=O)[O-])cc3)nn1)O2 (stereo unspecified)
6. O=C1C(=O)c2ccccc2C2=C1CC(c1cn(-c3ccc(Cl)c(Cl)c3)nn1)O2 (stereo unspecified)

[74, 41.8, 76.2, 59.3, 88.7, 81]

* * *

Field: viability at 48 h, 5 µM. Provide a value for each of the compounds that follow.
PROCEDURE DETAILS: Cytotoxicity against African green monkey Vero cells assessed as cell viability at 5 uM after 48 hrs by MTT assay relative to control
Format: cell-based
STATED CONDITIONS: chlorocebus sabaeus, read-out: Activity
Numbers only, in %.

A selection of reference data follows.
INSERT INTO measurements (compound, value_observed) VALUES
  ('O=C1C(=O)c2ccccc2C2=C1CC(c1cn(-c3ccc(F)cc3)nn1)O2 (centres undefined)', 55.8),
  ('O=C1C(=O)c2ccccc2C2=C1CC(c1cn(-c3cc(Cl)ccc3Cl)nn1)O2 (centres undefined)', 74.7);

Value sought for every listed compound: viability at 48 h, 5 µM.
1. O=C1C2=C(OC(c3cn(-c4ccc(Cl)c(Cl)c4)nn3)C2)C(=O)c2ccccc21 (centres undefined)
2. O=C1C(=O)c2ccccc2C2=C1CC(c1cn(-c3ccccc3)nn1)O2 (centres undefined)

1. 78.7
2. 68
